experiment: Pharmacokinetics after IV or oral administration in rat; format: in vivo, SD rat; conditions: male, Sprague-Dawley, rat, plasma, po, 80 mg/kg, SD rat M, HP-β-CD/saline
endpoint-label: bioavailability (%)

{"molecule": "CN(NC(=O)CC(=O)NN(C)C(=S)c1ccccc1)C(=S)c1ccccc1 [Compound 1]", "endpoint-label": "bioavailability", "reading": 17.5}

====

test: Pharmacokinetics after IV or oral administration in rat; type: in vivo, SD rat; settings: male, Sprague-Dawley, rat, plasma, po, 50 mg/kg, SD rat M, nanoparticles (colloidal dispersion)
endpoint-label: half-life (min)

{"compound": "CN(NC(=O)CC(=O)NN(C)C(=S)c1ccccc1)C(=S)c1ccccc1", "reading": 186}

====

test: Pharmacokinetics after IV or oral administration in rat; assay type: in vivo, SD rat; conditions: male, Sprague-Dawley, rat, plasma, po, 50 mg/kg, SD rat M, Phospholipid

{"compound": "CN(NC(=O)CC(=O)NN(C)C(=S)c1ccccc1)C(=S)c1ccccc1", "Tmax": "15 to 30 min"}

====

experiment: Pharmacokinetics after IV or oral administration in rat; format: in vivo, SD rat; details: male, Sprague-Dawley, rat, plasma, iv, 80 mg/kg, SD rat M, IV bolus, HP-β-CD/saline
endpoint-label: AUC(0-inf)

{"compound": "CN(NC(=O)CC(=O)NN(C)C(=S)c1ccccc1)C(=S)c1ccccc1 [Compound 1]", "reading": "23.7 µg·h/mL"}

====

assay: Pharmacokinetics after IV or oral administration in rat; assay type: in vivo, SD rat; settings: male, Sprague-Dawley, rat, plasma, other: PI, 80 mg/kg, SD rat M, route PI, Lyophilized HP-β-CD/saline, 80 mg/kg
endpoint-label: Cmax (ng/mL)

{"compound": "CN(NC(=O)CC(=O)NN(C)C(=S)c1ccccc1)C(=S)c1ccccc1 [Compound 1]", "endpoint-label": "Cmax", "unit-text": "ng/mL", "reading": 2550}

====

experiment: Pharmacokinetics after IV or oral administration in dog; type: in vivo; settings: male, beagle, dog, plasma, po, 50 mg/kg, Beagle dog M, TPGS/PEG400 (sol'n)

{"compound": "CN(NC(=O)CC(=O)NN(C)C(=S)c1ccccc1)C(=S)c1ccccc1 [Compound 1]", "Tmax": "24 min"}

====

assay: Pharmacokinetics after IV or oral administration in dog; type: in vivo; conditions: male, beagle, dog, plasma, po, 50 mg/kg, Beagle dog M, capsule (powder), 50 mg/kg as Compound 1 (free acid)
Reported half-life is given for each of the following compounds.

{"compound": "CN(NC(=O)CC(=O)NN(C)C(=S)c1ccccc1)C(=S)c1ccccc1", "half-life [h]": 2.5}
{"compound": "CN(/N=C(\\[O-])C/C([O-])=N/N(C)C(=S)c1ccccc1)C(=S)c1ccccc1.[Na+].[Na+]", "half-life [h]": 2.1}

====

experiment: Pharmacokinetics after IV or oral administration in mouse; assay type: in vivo; settings: female, plasma; CD-1 mouse F, IV bolus, EES (sol'n), 10 mg/kg

{"compound": "CN(NC(=O)CC(=O)NN(C)C(=S)c1ccccc1)C(=S)c1ccccc1 [Compound 1]", "unit-text": "min", "Tmax": 4.98}

====

Assay: Pharmacokinetics after IV or oral administration in rat
Assay type: in vivo, SD rat
Conditions: male, Sprague-Dawley, rat, plasma, po, 50 mg/kg, SD rat M, 0.5% MC (suspension)
Protocol: The pharmacokinetics of compounds of the invention were compared in mouse, rat and dog by either intravenous or oral administration in various formulations including drug powder in capsules or in combination with generally recognized as safe (GRAS) excipients. […] Compounds were extracted by protein precipitation and analyzed by LC-UV or LC-MS/MS. […] Oral bioavailability (% F) was calculated based on AUC of Compound 1. […]
endpoint-label: Tmax (min)

{"compound": "CN(NC(=O)CC(=O)NN(C)C(=S)c1ccccc1)C(=S)c1ccccc1", "endpoint-label": "Tmax", "reading": 30}
